- test target: human orexin-1 (hOX1) receptors (Homo sapiens)
- Construct: expressed in transfected cells
- Sequence (O43613 1-425): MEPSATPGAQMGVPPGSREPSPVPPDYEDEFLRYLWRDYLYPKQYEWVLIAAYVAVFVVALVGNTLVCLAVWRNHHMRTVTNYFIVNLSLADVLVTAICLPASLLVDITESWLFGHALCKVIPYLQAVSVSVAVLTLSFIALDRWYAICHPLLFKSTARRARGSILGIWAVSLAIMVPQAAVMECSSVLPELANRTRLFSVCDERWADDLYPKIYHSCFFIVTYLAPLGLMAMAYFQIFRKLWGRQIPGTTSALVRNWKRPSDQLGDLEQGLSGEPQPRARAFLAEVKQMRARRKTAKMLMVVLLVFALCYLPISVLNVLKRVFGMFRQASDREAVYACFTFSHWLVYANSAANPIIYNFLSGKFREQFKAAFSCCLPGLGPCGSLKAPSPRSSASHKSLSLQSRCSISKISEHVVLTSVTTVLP
- assay notes: Intracellular Ca2+ mobilization assay (FLIPR), CHO(dHFr-) cells expressing hOX1
- Format: cell-based
- experimental conditions: antagonism of orexin-A at EC80; Kb=IC50/(1+[A]/EC50); CHO(dHFr-)-OX1R cells
recorded endpoint: Kb (µM)

[
  {
    "compound": "COc1ccc(N(CCc2ccc(C(F)(F)F)cc2)C(=O)C(C(N)=O)c2ccccc2)cc1OC (stereo not shown) [Example 2]",
    "recorded endpoint": "Kb",
    "units label": "µM",
    "readout value": 0.127
  },
  {
    "compound": "COc1ccc(N(CCc2ccc(C(F)(F)F)cc2)C(=O)C(C(=O)N(C)Cc2ccccc2)c2ccccc2)cc1OC (stereo not shown) [Example 15]",
    "recorded endpoint": "Kb",
    "units label": "µM",
    "readout value": 0.166
  },
  {
    "compound": "COc1ccc(N(CCc2ccc(C(F)(F)F)cc2)C(=O)C(C(=O)NCC2CC2)c2ccccc2)cc1OC (stereo not shown) [Example 20]",
    "recorded endpoint": "Kb",
    "units label": "µM",
    "readout value": 0.292
  },
  {
    "compound": "COc1ccc(N(CCc2ccc(C(F)(F)F)cc2)C(=O)C(C(=O)Nc2ccc(F)cc2)c2ccccc2)cc1OC (stereo not shown) [Example 16]",
    "recorded endpoint": "Kb",
    "units label": "µM",
    "readout value": 0.252
  },
  {
    "compound": "COc1ccc(N(CCc2ccc(C(F)(F)F)cc2)C(=O)C(C(=O)N(C)CCc2ccccc2)c2ccccc2)cc1OC (stereo not shown) [Example 14]",
    "recorded endpoint": "Kb",
    "units label": "µM",
    "readout value": 0.234
  },
  {
    "compound": "COc1ccc(N(CCc2ccc(C(F)(F)F)cc2)C(=O)C(C(=O)NCc2ccc(C)cc2)c2ccccc2)cc1OC (stereo not shown) [Example 13]",
    "recorded endpoint": "Kb",
    "units label": "µM",
    "readout value": 0.218
  },
  {
    "compound": "COc1ccc(N(CCc2ccc(C(F)(F)F)cc2)C(=O)C(C(=O)NC2CC2)c2ccccc2)cc1OC (stereo not shown) [Example 18]",
    "recorded endpoint": "Kb",
    "units label": "µM",
    "readout value": 0.199
  },
  {
    "compound": "COc1ccc(N(CCc2ccc(C(F)(F)F)cc2)C(=O)C(C(=O)NCc2cccnc2)c2ccccc2)cc1OC (stereo not shown) [Example 24]",
    "recorded endpoint": "Kb",
    "units label": "µM",
    "readout value": 0.245
  },
  {
    "compound": "CNC(=O)C(C(=O)N(CCc1ccc(C(F)(F)F)cc1)c1ccc(OC)c(OC)c1)c1ccccc1 (stereo not shown) [Example 1]",
    "recorded endpoint": "Kb",
    "units label": "µM",
    "readout value": 0.16
  },
  {
    "compound": "COc1ccc(N(CCc2ccc(C(F)(F)F)cc2)C(=O)C(C(=O)Nc2cccnc2)c2ccccc2)cc1OC (stereo not shown) [Example 22]",
    "recorded endpoint": "Kb",
    "units label": "µM",
    "readout value": 0.439
  }
]
